# Tested on: CAL-85-1
# protocol: normalised viability (% of control), CellTiter-Blue; higher = more viable cells (about 100 = DMSO control)
# condition description: incubation time: 72 h
reported metric: normalised viability (%)

1. CN1CCN(c2ccc3nc(-c4c(N)c5c(F)cccc5[nH]c4=O)[nH]c3c2)CC1 [Dovitinib] (1000 nM) = 78.3
2. C#Cc1cccc(Nc2ncnc3cc(OC)c(OCCCCCCC(=O)NO)cc23)c1 [CUDC-101] (1000 nM) = 24.9
3. CC(C)C[C@H](NC(=O)[C@H](Cc1ccccc1)NC(=O)c1cnccn1)B(O)O [Bortezomib] (100 nM) = 5.3
4. COc1cccc2c1C(=O)c1c(O)c3c(c(O)c1C2=O)C[C@@](O)(C(C)=O)C[C@@H]3O[C@H]1C[C@H](N)[C@H](O)[C@H](C)O1 [Daunorubicin] (100 nM) = 77.2
5. CCOc1cc2ncc(C#N)c(Nc3ccc(OCc4ccccn4)c(Cl)c3)c2cc1NC(=O)/C=C/CN(C)C [Neratinib] (100 nM) = 94.9
6. COC1=C2C[C@@H](C)C[C@H](OC)[C@H](O)[C@@H](C)/C=C(\C)[C@H](OC(N)=O)[C@@H](OC)/C=C\C=C(/C)C(=O)NC(=CC1=O)C2=O [Geldanamycin] (1000 nM) = 23.7
7. COc1ccc(C2=N[C@@H](c3ccc(Cl)cc3)[C@@H](c3ccc(Cl)cc3)N2C(=O)N2CCNC(=O)C2)c(OC(C)C)c1 [Nutlin-3] (1000 nM) = 88.9
8. COC1=CC(c2cc3ccccc3[nH]2)=N/C1=C\c1[nH]c(C)cc1C [Obatoclax] (1000 nM) = 57.5
9. C[C@@]1(C(=O)Nc2ccc(F)nc2)CCCN1c1nc(Nc2cc(C3CC3)n[nH]2)c2cccn2n1 (1000 nM) = 49.4
